- STUDY_TARGET: T1, Cynomolgus TCR(AEA41865/AEA41866)-zipper protein (cynomolgus monkey)
- T1 construct: also called cyTCR-zipper protein; cynoTCR zipper
- T1 TCR alpha: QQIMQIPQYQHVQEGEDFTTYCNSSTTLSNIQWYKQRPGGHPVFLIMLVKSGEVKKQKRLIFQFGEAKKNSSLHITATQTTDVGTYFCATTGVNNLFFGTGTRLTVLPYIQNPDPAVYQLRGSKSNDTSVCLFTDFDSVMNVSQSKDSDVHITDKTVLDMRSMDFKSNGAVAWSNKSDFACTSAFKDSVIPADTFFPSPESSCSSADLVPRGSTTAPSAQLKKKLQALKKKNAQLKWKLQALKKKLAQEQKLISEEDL
- T1 TCR beta: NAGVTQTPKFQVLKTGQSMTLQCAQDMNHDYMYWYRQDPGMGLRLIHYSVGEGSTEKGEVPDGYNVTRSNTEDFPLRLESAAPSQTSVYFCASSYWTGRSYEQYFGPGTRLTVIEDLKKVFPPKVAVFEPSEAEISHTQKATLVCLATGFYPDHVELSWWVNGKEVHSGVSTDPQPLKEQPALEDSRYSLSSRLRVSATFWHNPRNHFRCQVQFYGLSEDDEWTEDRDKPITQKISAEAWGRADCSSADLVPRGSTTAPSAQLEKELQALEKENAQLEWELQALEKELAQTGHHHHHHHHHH
- PROTOCOL_NOTES: SPR ProteOn off-rate screen
METRIC_NAME: koff (s⁻¹)

(a) T017000361 (VHH) VHH: EVQLVESGGGVVQPGGSLRLSCVASGSVHKINFLGWYRQAPGKEREKVAHISIGDQTDYADSAKGRFTISRDESKNMVYLQMNSLRPEDTALYFCRAMSRIWPYDYWGQGTLVTVSS
(b) T017000369 (VHH) VHH: EVQLVESGGGVVQPGGSLRLSCVASGSVHKLNFYGWYRQAPGKEREKVAHISIGDQTDYADSAKGRFTISRDESKNMVYLQMNSLRPEDTALYFCRAMSRIWPYDWWGQGTLVTVSS
(c) T017000757 (VHH) VHH: EVQLVESGGGVVQPGGSLRLSCVASGAVHKLNFLGWYRQAPGKEREKVAHISIGDQTDYADSAKGRFTISRDESKNMVYLQMNSLRPEDTALYFCRAFSKIWPYDWWGQGTLVTVSS
(d) T017000531 (VHH) VHH: EVQLVESGGGVVQPGGSLRLSCVASGSVHKINFLGWYRQAPGKEREKVAHISIGDQTDYADSAKGRFTISRDESKNMVYLQMNSLRPEDTALYFCRAMSRIWPYDWWGQGTLVTVSS
Query :: Sequence the entries by koff, beginning with the highest number. Please, when replying, give the labels in the order that was requested.
Result :: d, b, a, c
